- tested.target: P2X purinoceptor 3 (Homo sapiens)
- Sequence (whole entry): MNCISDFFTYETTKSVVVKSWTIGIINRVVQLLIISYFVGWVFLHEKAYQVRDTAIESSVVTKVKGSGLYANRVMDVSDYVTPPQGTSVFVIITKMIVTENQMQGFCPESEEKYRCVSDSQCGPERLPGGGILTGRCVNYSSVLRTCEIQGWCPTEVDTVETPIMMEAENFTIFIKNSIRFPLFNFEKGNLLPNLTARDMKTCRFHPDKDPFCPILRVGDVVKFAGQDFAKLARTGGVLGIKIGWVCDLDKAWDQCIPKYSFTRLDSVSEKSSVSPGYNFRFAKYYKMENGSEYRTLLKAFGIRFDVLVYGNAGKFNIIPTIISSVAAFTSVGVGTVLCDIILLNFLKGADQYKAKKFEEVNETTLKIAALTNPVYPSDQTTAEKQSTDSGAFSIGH
- method: Antagonist activity at human P2X3R transfected in CHO-K1 cells at 30 uM preincubated for 30 mins followed by alpha,beta-meATP addition by fluorescence based assay relative to control
- Format: cell-based
- Design: scale not given: the % may be the effect or the level left
property.label: Activity

# annotated cases, reported Activity shown
[[record]]
compound_smiles = "CCc1cc2c(c3ccccc13)NC(=O)CC(=O)N2c1cccc(-c2noc(=S)[nH]2)c1"
observed_result = "6%"

[[record]]
compound_smiles = "Cc1ccc2c(Br)cc3c(c2c1)NC(=O)CC(=O)N3c1cccc(-c2noc(=S)[nH]2)c1"
observed_result = "17%"

[[record]]
compound_smiles = "O=C1CC(=O)N(c2cccc(-c3noc(=S)[nH]3)n2)c2ccc3ccccc3c2N1"
observed_result = "17%"


IN: Retrieve Activity on P2X purinoceptor 3 (Homo sapiens); query "[N-]=[N+]=NCc1ccc2c(Br)cc3c(c2c1)NC(=O)CC(=O)N3c1cccc(-c2noc(=S)[nH]2)c1"
OUT: 15%

IN: Retrieve Activity on P2X purinoceptor 3 (Homo sapiens); query "Cc1cc(-c2noc(=S)[nH]2)cc(N2C(=O)CC(=O)Nc3c2ccc2ccccc32)c1"
OUT: 12%

IN: Retrieve Activity on P2X purinoceptor 3 (Homo sapiens); query "O=C1CC(=O)N(c2cccc(-c3noc(=S)[nH]3)c2)c2cc(C#Cc3cccnc3)c3ccccc3c2N1"
OUT: 9%

IN: Retrieve Activity on P2X purinoceptor 3 (Homo sapiens); query "CC(=O)NCc1ccc2ccc3c(c2c1)NC(=O)CC(=O)N3c1cccc(-c2noc(=S)[nH]2)c1"
OUT: 9%

IN: Retrieve Activity on P2X purinoceptor 3 (Homo sapiens); query "CCCCC#Cc1cc2c(c3ccccc13)NC(=O)CC(=O)N2c1cccc(-c2noc(=S)[nH]2)c1"
OUT: 18%
